# System: SK-OV-3 ovarian
# assay overview: NCI tumour cell line growth inhibition, 48 h
measured metric: TGI

In [3]: df
Out[3]:
                                    molecule       val
 0  COC1/C=C\C=C(/C)C(=O)Nc2cc3nc4ccc(Br)cc4oc-3c(c2=O)CC(C)CC(OC)C(O)C(C)/C=C(\C)C1OC(N)=O (stereo unspecified)   15.3 µM
 1  OCc1c2c(cc3c1CC1(C3)Cc3cc4c(c(CO)c3C1)CCC4)CCC2     33 µM
 2                    NC(Cc1ccccc1)=NCC(=O)O  > 100 µM
 3                     CC1(C)COCN1COC1CCCCC1  > 100 µM
 4  COc1ccc(CNc2nc3cc(N)cc(N)c3nc2-c2ccccc2)cc1OC   45.6 µM
 5  N#Cc1ccccc1NC(=O)/C(=N\NC(=O)c1ccncc1)C(c1cnc2ccc([N+](=O)[O-])cc2n1)[N+](=O)[O-] (stereo unspecified)  > 100 µM
 6               C=C(Cl)COC(=O)Nc1cccc(Cl)c1  > 100 µM
 7         Nc1ccc(C(=O)c2ccc(N)c(Br)c2)cc1Br   32.6 µM
 8  CCC(C)NC(=S)N/N=C(\C)c1ccccn1 (stereo unspecified)  > 100 µM
 9      N#Cc1ccc(OC(=O)c2ccc(N=C(N)N)cc2)cc1  > 100 µM
10  CCOc1cc2c(cnc3c4cc(OC)c(OC)cc4ccc23)cc1OC  > 100 µM

* * *

# System: SN12C renal
# assay overview: NCI tumour cell line growth inhibition, 48 h
measured metric: TGI

>>> print(df.to_string())
                                   compound  measured_metric       val
0  Cc1ccccc1CN1CC2=C(CCN(Cc3ccccc3)C2=O)N2CCN=C12              TGI  > 100 µM
1  O=C(O)CCC(C(=O)O)N1C(=O)c2ccccc2C1=O (stereo unspecified)              TGI  > 100 µM
2  CC1(CCc2ccccc2)CC1(Br)Br (stereo unspecified)              TGI   38.1 µM
3  CCC(C)NC(=S)N/N=C(\C)c1ccccn1 (stereo unspecified)              TGI  > 100 µM
4  COc1ccc(-c2cc(C3CC3)nc(SCC(=O)O)c2C#N)cc1              TGI  > 100 µM
5  N#CC(c1nc2ccccc2s1)c1nc(Cl)ncc1Br (stereo unspecified)              TGI  > 100 µM

* * *

# System: SF-539 CNS
# assay overview: NCI tumour cell line growth inhibition, 48 h
measured metric: TGI (µM)

molecule	result modifier	val
Cc1cccc(/C=N/NC(=S)N2CCCCCC2)n1	=	0.549
O=C1CCCCCCCCCCC(=O)C2CCOCCOCCOCCC1Cc1cccc(n1)C2	>	100
Nc1ccc(C(=O)c2ccc(N)c(Br)c2)cc1Br	=	3.16
O=S(=O)(O)c1ccc2c(N=Nc3ccccc3)c(O)c(S(=O)(=O)O)cc2c1	>	100
c1ccc2c(c1)nc1n2CCNC1	>	100
OCCN1CN(c2nc(N3CN(CCO)C3)nc(N3CN(CCO)C3)n2)C1	=	35
N#Cc1ccccc1NC(=O)/C(=N\NC(=O)c1ccncc1)C(c1cnc2ccc([N+](=O)[O-])cc2n1)[N+](=O)[O-] (stereo not given)	>	100
O=[N+]([O-])c1ccc(-c2nc(N(CCO)CCO)c3ccccc3n2)o1	=	1.24
COc1ccc(C2c3cc4c(cc3OC(NNC(N)=O)C2C)OCO4)cc1 (stereo not given)	=	4.86
COc1cc(C(=O)O[C@H](C(=O)NCCNC(=O)[C@@H](OC(=O)c2cc(OC)cc3c(C)cccc23)[C@]2(C)CO2)[C@]2(C)CO2)c2cccc(C)c2c1	=	0.371
O=[N+]([O-])c1ccc(Sc2c3ccccc3nc3ccccc23)cc1	>	100
Clc1ccc(-n2nnc(C3=NCCCN3)c2-c2ccccc2)cc1	>	100
Fc1ccc(Oc2nccc(-c3c(-c4ccc(F)cc4)ncn3C3CCNCC3)n2)cc1	>	25
Nc1nc2cc(CNc3ccc(C(=O)O)cc3)ccc2nc1-c1ccccc1	>	100
COc1ccc(OC)c(C(=O)/C=C/c2cc(O)c(O)cc2F)c1	=	0.626
COC(=O)c1c(C)ccc2c(O)c3c(cc12)C(=O)c1c2c(cc(O)c1C3=O)C1(C)OC(C)(O2)C(O)C(N(C)C)C1O (stereo not given)	=	12.8
N#CC1=C(N)OC2=C(COc3ccc(F)cc32)C1c1ccc(Cl)cc1 (stereo not given)	=	81.6
CCn1nc(-c2ccccc2)c2c1N(C)c1ccccc1-n1c(-c3ccccc3)nnc1-2	=	48
CCN(CC)c1ccc(/C=c2\nc(-c3ccccc3)n3c2nc2ccccc23)cc1	=	11.4
COC(=O)NC/C=C\c1nc(CC/C=C\C(=O)OC2CC3CC(=O)O[C@H](/C=C/CC(C)C)C[C@H]4CCC(C)C(C[C@H](OC)CC(C2)O3)O4)co1 (stereo not given in full)	=	0.114

Reference for the values: PubChem BioAssay (NCI)
